System: Cryptococcus neoformans
Assay: Antimicrobial activity against Cryptococcus neoformans IM 00319 isolate at 6.25 ug/ml after 48 hrs
Format: functional
compounds and their reported inhibition at 6.25 µg/mL
Output spec: scalar in %, unitless text.

Some compounds with known inhibition at 6.25 µg/mL results, for comparison:
COMPOUND	QUANTITY KIND	NUMERIC VALUE
c1ccc(-c2ccc3ccccc3n2)cc1	inhibition at 6.25 µg/mL	0
c1ccc2nc(-c3ccncc3)ccc2c1	inhibition at 6.25 µg/mL	12

### Prompt Please provide the recorded inhibition at 6.25 µg/mL for Cc1cc(-c2ccncc2)nc2ccccc12 , tested on Cryptococcus neoformans.
### Response 12

### Prompt Next entry: C[C@@H]1[C@H](O)[C@@H](C)/C=C/C=C/C=C/C=C/C=C/C=C/C=C/[C@H](O[C@@H]2O[C@H](C)[C@@H](O)[C@H](N)[C@@H]2O)C[C@@H]2O[C@](O)(C[C@@H](O)C[C@@H](O)[C@H](O)CC[C@@H](O)C[C@@H](O)CC(=O)O[C@H]1C)C[C@H](O)[C@H]2C(=O)O
### Response 100

### Prompt What about CC(=O)N1CCN(c2ccc(OCC3COC(Cn4ccnc4)(c4ccc(Cl)cc4Cl)O3)cc2)CC1 (stereo not given) ?
### Response 100

###

Tested on: Aspergillus niger
Assay: Antifungal activity against Aspergillus niger ATCC 9029 after 48 hrs by broth microdilution technique
Type: functional
Settings: ATCC 9029, 48 h
This section presents molecules with their documented MIC values.

Example molecules with recorded MIC:
> print(dat)
                   smiles.structure       result
1    Cc1cc(-c2cccnc2)nc2ccc(Br)cc12  > 250 µg/mL
2  c1ccc2nc(-c3ccc4c(c3)OCO4)ccc2c1  > 250 µg/mL

// next entry
### Prompt Any idea what its MIC is? The molecule is Clc1ccc2nc(-c3ccco3)ccc2c1
### Response > 250 µg/mL

###

System: Aspergillus niger
Assay: Antifungal activity against Aspergillus niger ATCC 9029 after 48 hrs by broth microdilution technique
Type: functional
Settings: ATCC 9029, 48 h
Catalogue of MIC values

As a guide, the following entries are already answered.
> print(dat)
                                   compound       result
1                COc1ccc2nc(-c3cccs3)ccc2c1  > 250 µg/mL
2  CCc1ccc2nc(-c3cccc([N+](=O)[O-])c3)ccc2c1  > 250 µg/mL
3     O=[N+]([O-])c1ccc2nc(-c3ccccc3)ccc2c1  > 250 µg/mL
4             Cc1cc(-c2ccncc2)nc2c(C)cccc12  > 250 µg/mL
5                 c1ccc2nc(-c3ccncc3)ccc2c1     50 µg/mL

Query compound follows.
### Prompt Any idea what its MIC is? The compound is c1ccc(-c2ccc3ccccc3n2)cc1 [2-PHENYLQUINOLINE]
### Response > 250 µg/mL

###

Tested on: Candida albicans
Assay: Antifungal activity against Candida albicans ATCC 10231 after 48 hrs by broth microdilution technique
Assay type: functional
Settings: ATCC 10231, 48 h
QUANTITY KIND: MIC

Example entries begin here.
COMPOUND	QUANTITY KIND	RESULT
Cc1cc(-c2ccncc2)nc2c(C)cccc12	MIC	> 250 µg/mL
COc1ccc2nc(-c3ccc4c(c3)OCO4)ccc2c1	MIC	> 250 µg/mL
Cc1cc(C)c2ccc(-c3ccccc3)nc2c1	MIC	> 250 µg/mL
Nc1cccc(-c2ccc3cc(Cl)ccc3n2)c1	MIC	> 250 µg/mL
O=[N+]([O-])c1cccc(-c2ccc3cc(Cl)ccc3n2)c1	MIC	> 250 µg/mL

### Prompt Can you look up the measured MIC of Cc1ccc([N+](=O)[O-])c2c(C)cc(-c3ccncc3)nc12 for me?
### Response > 250 µg/mL

### Prompt Same for O=[N+]([O-])c1cccc(-c2ccc3cc(F)ccc3n2)c1
### Response > 250 µg/mL

### Prompt Request: Fc1ccc2nc(-c3ccccc3)ccc2c1
### Response > 250 µg/mL

### Prompt Field entry: O=[N+]([O-])c1ccc2nc(-c3ccccc3)ccc2c1
### Response > 250 µg/mL

### Prompt Next up: c1ccc2nc(-c3ccncc3)ccc2c1
### Response 100 µg/mL

### Prompt Param item: C[C@@H]1[C@H](O)[C@@H](C)/C=C/C=C/C=C/C=C/C=C/C=C/C=C/[C@H](O[C@@H]2O[C@H](C)[C@@H](O)[C@H](N)[C@@H]2O)C[C@@H]2O[C@](O)(C[C@@H](O)C[C@@H](O)[C@H](O)CC[C@@H](O)C[C@@H](O)CC(=O)O[C@H]1C)C[C@H](O)[C@H]2C(=O)O [AMPHOTERICIN B]
### Response 1 µg/mL

### Prompt Try this compound too: c1ccc(-c2ccc3cc4c(cc3n2)OCO4)cc1
### Response > 250 µg/mL

### Prompt Field entry: Oc1ccc2nc(-c3ccccc3)ccc2c1
### Response > 250 µg/mL

### Prompt Now this one: Cc1cc(-c2ccncc2)nc2ccccc12
### Response 100 µg/mL

### Prompt COc1ccc2nc(-c3ccco3)ccc2c1 ?
### Response > 250 µg/mL

### Prompt Clc1ccc2nc(-c3ccccc3)ccc2c1 ?
### Response > 250 µg/mL

### Prompt CCc1cccc2c(C)cc(-c3ccncc3)nc12 ?
### Response > 250 µg/mL

### Prompt Follow-up item: CCc1ccc2nc(-c3cccc([N+](=O)[O-])c3)ccc2c1
### Response > 250 µg/mL

### Prompt Now consider c1ccc(-c2ccc3ccccc3n2)cc1 [2-PHENYLQUINOLINE] and answer again.
### Response 250 µg/mL

### Prompt Same lookup for Cc1cc(-c2ccncc2)nc2c(C(C)C)ccc([N+](=O)[O-])c12 , please.
### Response > 250 µg/mL

###

Test system: Cryptococcus neoformans
Assay: Antifungal activity against Cryptococcus neoformans ATCC 32264 after 48 hrs by broth microdilution technique
Assay type: functional
Settings: ATCC 32264, 48 h
// reported MIC per item

// worked examples, MIC included
> print(dat)
                           smiles.structure       result
1  Cc1cc(-c2ccncc2)nc2c(C(C)C)ccc([N+](=O)[O-])c12  > 250 µg/mL
2         Cc1cc(-c2ccncc2)nc2c(C(C)C)cccc12  > 250 µg/mL
3                 c1ccc(-c2ccc3ccccc3n2)cc1   31.2 µg/mL

### Prompt Look up MIC with Cryptococcus neoformans for this molecule: Cc1cc(-c2ccncc2)nc2ccccc12
### Response 25 µg/mL

### Prompt Subsequent entry: Fc1ccc2nc(-c3ccccc3)ccc2c1
### Response > 250 µg/mL

### Prompt Same lookup for Clc1ccc2nc(-c3ccco3)ccc2c1 , please.
### Response > 250 µg/mL
